I'd appreciate it if you could supply normalized growth values for the items below.
# PROCEDURE_SUMMARY: chemical genetic growth profiling, strain panel (AID 1159580);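 further: tested at 20 µM; growth read once vehicle control cultures reached saturation at 30 °C; 1 = growth at the plate median or of vehicle wells; lower values mean less growth of the strain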
# SETUP_CONDITIONS: S. cerevisiae deletion strains, growth OD, locus YOR083W, strain WHI5, hits give low values
The whole screen tested about 5,500 compounds, of which about 2,000 (36%) were called active. About 18% were inconclusive and are not listed. This is one part of the list.
Numbers only.

Before answering, review these 4 worked examples.
[
  {
    "MOLECULE": "CCC(=O)Nc1ccc(Cl)c(Cl)c1",
    "normalized growth": 0.994
  },
  {
    "MOLECULE": "CC(=O)Nc1nnc(S(N)(=O)=O)s1",
    "normalized growth": 0.993
  },
  {
    "MOLECULE": "CCCCC[C@H](CC(=O)NO)C(=O)N[C@H](C(=O)N1CCC[C@H]1CO)C(C)C",
    "normalized growth": 1.02
  },
  {
    "MOLECULE": "C=C1C2CC[C@@]3(C)[C@H](c4ccoc4)OC(=O)C[C@]13O[C@H]1CC(O)C(C)(C)C(CC(=O)OC)[C@@]21C (stereo partly specified)",
    "normalized growth": 0.981
  }
]

// for each molecule below, give its normalized growth
1. OC[C@H]1OC([S-])[C@H](O)[C@@H](O)[C@@H]1O.[Au+] (stereo partly specified)
2. CC(=O)OCC(=O)[C@@]1(O)[C@H](OC(C)=O)CC2C3CCC4=CC(=O)C=C[C@]4(C)[C@@]3(F)[C@@H](O)C[C@@]21C (stereo partly specified)

0.996
1.01
